Values compiled from the supplement of paper PMC10338343.

# System: MILI (PIWIL2) piRISC loaded with L1MC piRNA (26 nt);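 note: 1 nM active piRISC with 0.1 nM target library at 33 °C single turnover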
# method_notes: pre-steady-state target cleavage rate (min^-1); guide: L1MC piRNA 5'p-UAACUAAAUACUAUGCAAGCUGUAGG; higher = faster piRNA-guided slicing of the target
# recorded_conditions: auxiliary factor: 500 nM mouse GTSF1
// label = fulfilled if pre-steady-state target cleavage rate is not less than 0.09, otherwise not fulfilled

construct_sequence	cat
UCCUGGAUGUCGAAGCAUAGUAUUGAGUUA	not fulfilled
UCCUGGAUGUCGUUGCAUAGUAUUUAGCUUA	not fulfilled
UCCUGGUACAGCAUGCAUAGUAUAUAGUUA	fulfilled
UCCUGGUACAGCUUGGAUACUAUUUAGUUA	fulfilled
UCCUGGUUCUGCUUGCAUAGUAUUUAGUUA	fulfilled
UCCUGGAUGAGCUGGCAUAGUAUUUAGUUA	fulfilled
UCCUGCUACAGCUUGCAUAGUAUUAAGAUA	not fulfilled
UCCUGGAACAGCUUUCAUAGUAUUUAGUUA	fulfilled
UCCUGGUUCAGCAUGCAUAGUAUUUAGUUA	fulfilled
UCCUGGAUGUGCAUUGCAUAGUAUUUAGUUA	fulfilled
UCCUGGAACAGCUUGGAAAGUAUUUAGUUA	fulfilled
UCCUCCUACAGCUUGCAUAGAUUUUACAAA	not fulfilled
UCCUGGAUCAGCUUGCUUAGUAUUUAGUUA	fulfilled
UCCUCCUACAGCUUGCAAAGUAUAUAGUUA	fulfilled
UCCUGGAUGUCGAUGCAUAGUAUUUAGUGUA	fulfilled
UCCUGGUACAGCUUGCAUAGUCUUUAGUUA	fulfilled
UCCUCCUACAGCUUAGCAUAGUAUUUAGUUA	fulfilled
UCCUGCUACACGUUGCAUAGUAUUUAGAAA	not fulfilled
UCCUGGAUGAGGUUGCAUUGUAUUUAGUUA	not fulfilled
UCCUGGAUGAGCUAGCAUAGAAUUUAGUUA	not fulfilled
UCCUGGAUGUCCUUGCAUAGUUUUUUGUUA	not fulfilled
UCCUGGAACAGCUUACAUAGUAUUUAGUUA	fulfilled
UCCUGGUACAGCUUGCAUAGUAAUUAGUUA	fulfilled
UCCUGGAUCAGCUUGCAUUCUAUUUAGUAA	not fulfilled
UCCUCCUACAGCUUGCAUAGUUAUUUAGUUA	not fulfilled
UCCUGGAUGAGCUUGCAUAGUAUUUACUUA	not fulfilled

---

A collection of sequences and their measured pre-steady-state target cleavage rate
# System: MILI (PIWIL2) piRISC loaded with L1MC piRNA (26 nt);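 note: 1 nM active piRISC with 0.1 nM target library at 33 °C single turnover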
# method_notes: pre-steady-state target cleavage rate (min^-1); guide: L1MC piRNA 5'p-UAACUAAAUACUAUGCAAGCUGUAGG; higher = faster piRNA-guided slicing of the target
# recorded_conditions: auxiliary factor: 500 nM mouse GTSF1

construct_sequence	pre-steady-state target cleavage rate
UCCUCCUACAGCUUGCUAAGUAUUUAGUUA	0.17
UCCUGGAACAGCUUGCAUAGUAUUUAAGUUA	0.195
UCCUCCUACAGCUUCGUUAGUAUUUAGUUA	0.221
UCCUGGAUGUCGUUGCAUAGUCAUUUAGUUA	0.00441
UCCUGGAUCACGUUGCAUAGUAUUUUCAAA	0.0743
UCCUCCUACAGCUUGCAUAGGAUUUAGUUA	0.0118
UCCUGGAACAGCUACGAUAGUAUUUAGUAA	0.142
UCCUGCUACACCUUGCAUAGUAUUUAGUAA	0.192
UCCUGGAUGACCUUGCAUAGUAUUUUGUUA	0.0852
UCCUGGAUGUCCUUGCUUAGUAUUUAGUAA	0.0426
UCCUGGAUGUCGUUGCAAAGUAUUUUGUUA	0.0092
UCCUGCUACAGCAUGCAUAGUAUAUAGUUA	0.284
UCCUGCUACAGCUUGCAUAGUAUUAAGUUA	0.245
UCCUGGUACAGGCUUGCAUAGUAUUUAGUUA	0.203
UCCUGCUACAGCUUGCAAUGUAUUUACAAA	0.0477
UCCUCCUACAGCUUGCAUAGAAUUUUCAAA	0.0466
UCCUGGUACUGCUUGCAUAGUAUUUAGAAA	0.0143
UCCUGGUACAGCUUGGUAAGUAUUUAGUUA	0.113
UCCUGGAUGUCCUUGCAUAGUGAUUUAGUUA	0.0104
UCCUGGAUCAGCUUGCAUAGUAUUUGGUUA	0.245
UCCUGGAUGUCCUUGCUUAGUAAUUAGUUA	0.0235
UCCUCCUACUGCUUGCAUAGUUUUUAGUUA	0.0525
UCCUGGAACUGCUUGCAUACUAUUUAGUUA	0.076
UCCUGGAACAGCUUGCAUAGUAUUCUAGUUA	0.145
UCCUGGAUCAGCUUGCAUAGUAUAUUAGUUA	0.273
UCCUCCUACUGCUUGCAUUGUAUUUAGUUA	0.212
UCCUCCUACAGCUUGCAUAGUAUUUAUUA	0.0949
UCCUGGAUGUCCUUGCAUAGUCAUUUAGUUA	0.00722

---

# Tested on: MILI (PIWIL2) piRISC loaded with L1MC piRNA (26 nt);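 note: 1 nM active piRISC with 0.1 nM target library at 33 °C single turnover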
# method_notes: pre-steady-state target cleavage rate (min^-1); guide: L1MC piRNA 5'p-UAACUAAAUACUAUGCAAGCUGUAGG; higher = faster piRNA-guided slicing of the target
# recorded_conditions: auxiliary factor: none (no GTSF1)
A collection of sequences and their measured pre-steady-state target cleavage rate
readout_label: pre-steady-state target cleavage rate

construct_sequence	readout_label	result_comparator	observed_value
UCCUGGUACAGCUUGCAUAGUCAUUUAGUUA	pre-steady-state target cleavage rate	=	0.00451
UCCUCCUACAGCUAGCAUAGUUUUUAGUUA	pre-steady-state target cleavage rate	=	0.00299
UCCUGGAUGUCGAACCAAGUAUUUAGUUA	pre-steady-state target cleavage rate	<	0.0001
UCCUCCUACAGGUUGCAUAGUAAUUAGUUA	pre-steady-state target cleavage rate	=	0.00589
UCCUCCUACAGCUUGCAAAGUAUUUAGUUA	pre-steady-state target cleavage rate	=	0.00717
UCCUGGAUGUCCUAUGCAUAGUAUUUAGUUA	pre-steady-state target cleavage rate	=	0.00575
UCCUGGAUCAGCUUGCCUAGUAUUUAGUUA	pre-steady-state target cleavage rate	=	0.00686
UCCUCCUACAGCAUGCAUAGUAUAUAGUUA	pre-steady-state target cleavage rate	=	0.00579
UCCUGCUAGAGCUUGCAUAGUAAUUAGUUA	pre-steady-state target cleavage rate	=	0.00448
UCCUGCUAGCAGCUUGCAUAGUAUUUAGUUA	pre-steady-state target cleavage rate	=	0.00955
UCCUGGUACAGCAUGCAUAGUAUUUUGUUA	pre-steady-state target cleavage rate	=	0.00364
UCCUGGAUCAGCUUGCAUAGUCUUUAGUUA	pre-steady-state target cleavage rate	=	0.00789
UCCUGCAACUGCUUGCAUAGUAUUUAGUUA	pre-steady-state target cleavage rate	=	0.00581

---

# Tested on: MILI (PIWIL2) piRISC loaded with L1MC piRNA (26 nt);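 note: 1 nM active piRISC with 0.1 nM target library at 33 °C single turnover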
# method_notes: pre-steady-state target cleavage rate (min^-1); guide: L1MC piRNA 5'p-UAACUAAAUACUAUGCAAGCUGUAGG; higher = faster piRNA-guided slicing of the target
# recorded_conditions: auxiliary factor: 500 nM mouse GTSF1
Grouping key: pre-steady-state target cleavage rate. Bins: bin 0: < 0.03; bin 1: ≥ 0.03 and < 0.2; bin 2: ≥ 0.2

construct_sequence	cat
UCCUGGAUCAGCUUGCAUAGUAUUUAGUUU [g2:g22:cont:t1U]	bin 2
UCCUGCUACAGCAAGCAUAGUAUUUAGAAA	bin 2
UCCUGCUACAGCUUGCAUACUAUUUUGUUA	bin 0
UCCUGGAUGAGUUUGCAUAGUAUUUAGUUA	bin 1
UCCUGCAACAGCUUGCAUAGUAAUUAGUUA	bin 2
UCCUCCAUGAGCUUGCAUAGUAUUUAGUAA	bin 1
UCCUGGAUGUCGAUGCAUAGUAUAAUGUUA	bin 1
UCCUGGAUGUGCUAGCAAAGUAUUUAGUUA	bin 0
UCCUGGAUCAGCUUGCAUACUAUAUAGUUA	bin 0
UCCUCCAUGAGCUUGCAUAGUAUUUAGAAA	bin 1
UCCUGGAUGAGCUUGCAUUGUAUUUACUUA	bin 1
UCCUGGAUCACCUUGCAUUGUAUUUAGUUA	bin 1

---

# Tested on: EfPiwi piRISC loaded with L1MC piRNA (26 nt)
# method_notes: pre-steady-state target cleavage rate (min^-1); auxiliary factor: 500 nM Ephydatia muelleri Gtsf1; guide: L1MC piRNA 5'p-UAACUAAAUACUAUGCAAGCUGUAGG; MIWI and MILI are mouse PIWI proteins and EfPiwi is from a freshwater sponge; tags in brackets are library labels; higher = faster piRNA-guided slicing of the target
Grouping key: pre-steady-state target cleavage rate. Bins: bin A (below 0.004), bin B (0.004 to below 0.009), bin C (0.009 or more)

construct_sequence	cat
UCCUGGAUGAGCUUGCACAGUAUUUAGUUA	bin C
UCCUGGAUCUGCUUGCAUAGUAUUUAGUUA	bin C
UCCUCCUACACCUUGCAUAGAAUUUAGUUA	bin A
UCCUGGUGACAGCUUGCAUAGUAUUUAGUUA	bin C
UCCUGGAACAGCUUGCAUAGUAUUUACUUA	bin B
UCCUGGAUCAGCUUGCAUUGUAUUUAGAAA	bin A
UCCUGCUACAGCUUGCAUAGUAUUAUGAAA	bin A
UCCUGGAUCAGCUUGGAUAGUAUUUUGUUA	bin A
UCCUGCUACAGCUUGCAUAGUAUUUUCUAA	bin B
UCCUGGAUCAGCUUGCAUAGUAAUAAGUUA	bin A
UCCUGGAUGUCGAUGCAUAUUAUUUAGUUA	bin B
UCCUCCUACAGCUUGCAAAGUAUUUAGUUA	bin C
